Protocol Details: Apparent clearance during terminal phase in Sprague-Dawley rat at 10 mg/kg, po by LC-MS/MS analysis
Assay type: ADME, organism-based
Condition Label: in vivo, read-out: CLz/F (converted)
Reported Endpoint: CL/F (mL/min/kg)

[[record]]
smiles = "CN1CCN(Cc2ccc(NC(=O)CCSc3ccc4c(/C=C/c5ccccn5)n[nH]c4c3)cc2C(F)(F)F)CC1"
value_unit = "mL/min/kg"
quantitative_result = 633


---

System: Bcr/Abl fusion protein (Homo sapiens, UniProt P00519, T315I)
Protocol Details: Inhibition of BCR/ABL T315I mutant (unknown origin) expressed in mouse BAF3 cells assessed as inhibition of ErK phosphorylation after 1 hr by immunoblotting analysis
Type: cell-based
pEC50: −log10 of the molar value.
Reported Endpoint: pEC50

[[record]]
smiles = "CN1CCN(Cc2ccc(NC(=O)CCSc3ccc4c(/C=C/c5ccccn5)n[nH]c4c3)cc2C(F)(F)F)CC1"
system = "Bcr/Abl fusion protein (Homo sapiens, UniProt P00519, T315I)"
reported_endpoint = "pEC50"
result = "> 8.00"

